Test system: Plasmodium berghei
assay_comment: Luciferase/luciferin-expressing antifolate-resistant parasites were used to infect a culture of HepG2 cells that were pre-incubated with compounds. Infected hepatocytes emit light due to the luciferase reaction. Assay results are presented as the percent inhibition of light emission compared to control. […]
Assay type: functional
reported_conditions: sporozoite, HEPG2TOX_HILL_SLOPE 2.29, HEPG2TOX_R_SQUARED 0.813, PBLUC_HILL_SLOPE 10.9, PBLUC_R_SQUARED 0.679, read-out: LUCIFERASE INFECTION ASSAY - IC50
result_type: IC50 (µM)
// return numeric value only (unit: µM, not printed)

Requested read-out: IC50. Entry: `CC1(C)CC(N2CCN(C(c3ccccc3)c3ccccc3)CC2)=CC(=[N+]2CCCCC2)C1`
1.36

###

Test system: Plasmodium berghei
assay_comment: Luciferase/luciferin-expressing antifolate-resistant parasites were used to infect a culture of HepG2 cells that were pre-incubated with compounds. Infected hepatocytes emit light due to the luciferase reaction. Assay results are presented as the percent inhibition of light emission compared to control. […]
Assay type: functional
reported_conditions: sporozoite, HEPG2TOX_HILL_SLOPE 0.0154, HEPG2TOX_R_SQUARED 0.0147, read-out: LUCIFERASE INFECTION ASSAY - IC50
pIC50: −log10 of the molar value.
result_type: pIC50

Please give the measured pIC50 for this compound: O=C(C1COc2ccccc2C1)N(Cc1ccccc1)c1ccccn1 (stereo unspecified)
< 5.00

###

Tested on: Plasmodium berghei
assay_comment: Luciferase/luciferin-expressing antifolate-resistant parasites were used to infect a culture of HepG2 cells that were pre-incubated with compounds. Infected hepatocytes emit light due to the luciferase reaction. Assay results are presented as the percent inhibition of light emission compared to control. […]
Format: functional
reported_conditions: sporozoite, PBLUC_HILL_SLOPE 7.79, PBLUC_R_SQUARED 0.6, read-out: LUCIFERASE INFECTION ASSAY - IC50
result_type: IC50
Write the quantity with the unit trailing the number.

What does the record list as IC50 for `NNC(=S)c1cc(Cl)cc(Cl)c1` ?
5.82 µM

###

System: Plasmodium berghei
assay_comment: Luciferase/luciferin-expressing antifolate-resistant parasites were used to infect a culture of HepG2 cells that were pre-incubated with compounds. Infected hepatocytes emit light due to the luciferase reaction. Assay results are presented as the percent inhibition of light emission compared to control. […]
Assay type: functional
reported_conditions: sporozoite, PBLUC_HILL_SLOPE 1.66, PBLUC_R_SQUARED 0.446, read-out: LUCIFERASE INFECTION ASSAY - IC50
result_type: pIC50
pIC50 field: float, defined as -log10 of concentration (mol/L).

Give recorded pIC50 with Plasmodium berghei for the following compound: `Oc1cc(C(F)(F)F)nc2ccc(F)cc12`
5.18

###

Tested on: Plasmodium berghei
assay_comment: Luciferase/luciferin-expressing antifolate-resistant parasites were used to infect a culture of HepG2 cells that were pre-incubated with compounds. Infected hepatocytes emit light due to the luciferase reaction. Assay results are presented as the percent inhibition of light emission compared to control. […]
Format: functional
reported_conditions: sporozoite, read-out: LUCIFERASE INFECTION ASSAY - IC90
result_type: IC90

# query: IC90 of entry `Cc1ccc(NC(=O)Cn2ccccc2=O)cc1S(=O)(=O)N1CCCCC1`
> 10 µM

Also, `O=C(CC1CCCC1)N1CCc2nc(NCc3cccc(Oc4ccccc4)c3)ncc2C1` please.
> 7.46 µM

Lookup `CCOc1ccc(Oc2ccc(S(=O)(=O)N(C)C3CCN(CC)CC3)cc2)cc1`
> 10 µM

Param item: `O=C(c1ccc(-n2cccn2)cc1)N1CCC(n2c(=O)[nH]c3ccccc32)CC1`
> 10 µM

Quick one: `O=C(Nc1cc(S(=O)(=O)c2ccccc2)cs1)c1ccc(Cl)cc1`
5.49 µM
